# System: SF-295
# run-description: Growth inhibition of human SF-295 cells
# Format: functional
Field: GI50. Provide a value for each of the compounds that follow.
Give bare numbers, in nM.

>>> df
                         chemical_structure  experimental_endpoint   u  result_number
0  CCCCCCCCC/C=C(/C)C[C@]1(C)C[C@H](C)[C@@H](CC(=O)O)OO1                   GI50  nM            980
1  CCCCCCCC/C=C(/C)C[C@]1(C)C[C@H](C)[C@@H](CC(=O)O)OO1                   GI50  nM            600

Next item in the queue.
Query block: Hi! What's the reported GI50 for `COc1cccc2c1C(=O)c1c(O)c3c(c(O)c1C2=O)C[C@@](O)(C(=O)CO)C[C@@H]3O[C@H]1C[C@H](N)[C@H](O)[C@H](C)O1` on SF-295?
Result block: 120
